Where do these numbers come from? They come from ChEMBL document CHEMBL1153073.

Please provide measured pIC50 for the entries that follow.
Test system: A549
Assay: Antiproliferative activity against human A549 cells by MTT assay
Format: functional, cell-based
Notebook: values listed as pIC50 are -log10 of the concentration (mol/L).

Query: What is its pIC50 for A549? Entry: C=CCc1cc(C=O)c(O)c(-c2ccc(O)c(CC=C)c2)c1
Result: 4.38

Query: What is its pIC50 for A549? Entry: C=CCc1cc(/C=N/CCN)c(O)c(-c2ccc(O)c(CC=C)c2)c1
Result: 4.39

====

Test system: A549
Test: Antiproliferative activity against human A549 cells by MTT assay
Format: functional, cell-based
Y if IC50 is below 60 µM. N if not; exact matches included in N.

Query: IC50 strictly < 60 µM for this compound? C=CCc1cc(/C=N\O)c(O)c(-c2ccc(O)c(CC=C)c2)c1
Result: Y

Query: IC50 strictly < 60 µM for this compound? C=CCc1ccc(O)c(-c2cc(/C=C(\C#N)C(=O)OCC)c(O)c(CC=C)c2)c1
Result: Y

Query: IC50 strictly < 60 µM for this compound? C=CCc1cc(/C=N/C2CCCCC2)c(O)c(-c2ccc(O)c(CC=C)c2)c1
Result: N

Query: IC50 strictly < 60 µM for this compound? C=CCc1cc(C=O)c(O)c(-c2cc(C=O)c(O)c(CC=C)c2)c1
Result: Y

Query: IC50 strictly < 60 µM for this compound? C=CCc1cc(/C=C2\SC(=O)NC2=O)c(O)c(-c2ccc(O)c(CC=C)c2)c1
Result: N

Query: IC50 strictly < 60 µM for this compound? C=CCc1ccc(O)c(-c2cc(/C=N/O)c(O)c(CC=C)c2)c1
Result: Y

Query: IC50 strictly < 60 µM for this compound? C=CCc1ccc(O)c(-c2ccc(O)c(CC=C)c2)c1 [HONOKIOL]
Result: Y

Query: IC50 strictly < 60 µM for this compound? C=CCc1cc(/C=N/c2ccccc2)c(O)c(-c2ccc(O)c(CC=C)c2)c1
Result: Y

Query: IC50 strictly < 60 µM for this compound? C=CCc1cc(-c2ccc(O)c(CC=C)c2)c2oncc2c1
Result: N

Query: IC50 strictly < 60 µM for this compound? C=CCc1ccc(O)c(-c2cc(C=O)c(O)c(CC=C)c2)c1
Result: Y

Query: IC50 strictly < 60 µM for this compound? C=CCc1ccc(O)c(-c2cc(/C=C3\SC(=O)NC3=O)c(O)c(CC=C)c2)c1
Result: N

Query: IC50 strictly < 60 µM for this compound? C=CCc1cc(/C=C(\C#N)C(=O)OCC)c(O)c(-c2ccc(O)c(CC=C)c2)c1
Result: N

Query: IC50 strictly < 60 µM for this compound? C=CCc1cc(/C=N\O)c(O)c(-c2cc(/C=N/O)c(O)c(CC=C)c2)c1
Result: Y

====

System: A549
Assay: Antiproliferative activity against human A549 cells by MTT assay
Type: functional, cell-based
Please provide measured IC50 for the entries that follow.

Query: Which value of IC50 has been reported for C=CCc1cc(/C=N/Nc2ccccc2)c(O)c(-c2ccc(O)c(CC=C)c2)c1 in the records?
Result: > 104 µM

Query: Which value of IC50 has been reported for C=CCc1cc(/C=C2\SC(=O)NC2=O)c(O)c(-c2cc(/C=C3\SC(=O)NC3=O)c(O)c(CC=C)c2)c1 in the records?
Result: > 76.9 µM

Query: Which value of IC50 has been reported for C=CCc1cc(/C=N/CCCCCC)c(O)c(-c2ccc(O)c(CC=C)c2)c1 in the records?
Result: > 106 µM
